Property: binding activity (OD after mutation/OD wild type); scope: individual binders
# Target or system: PD-1 (UniProt Q15116 25-167, limits assumed)
# Sequence (Q15116 25-167 limits assumed): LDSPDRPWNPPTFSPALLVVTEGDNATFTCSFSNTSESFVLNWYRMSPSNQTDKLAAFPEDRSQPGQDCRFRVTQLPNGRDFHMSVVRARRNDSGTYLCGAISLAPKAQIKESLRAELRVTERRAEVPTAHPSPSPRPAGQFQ
# Assay explanation: ELISA, OD mutant/OD WT; A=90-110%

>  <Binder>
anti-PD-1 antibody 1 light chain S56C (antibody, human IgG4 S228P, kappa, V domains shown) VH: QVQLVQSGVEVKKPGASVKVSCKASGYTFTNYYMYWVRQAPGQGLEWMGGINPSNGGTNFNEKFKNRVTLTTDSSTTTAYMELKSLQFDDTAVYYCARRDYRFDMGFDYWGQGTTVTVSS VL: EIVLTQSPATLSLSPGERATLSCRASKGVSTSGYSYLHWYQQKPGQAPRLLIYLACYLESGVPARFSGSGSGTDFTLTISSLEPEDFAVYYCQHSRDLPLTFGGGTKVEIKR

>  <Val>
90 to 110%

$$$$
>  <Binder>
anti-PD-1 antibody 2 light chain T56C (antibody, human IgG4 S228P, kappa, V domains shown) VH: QVQLVESGGGVVQPGRSLRLDCKASGITFSNSGMHWVRQAPGKGLEWVAVIWYDGSKRYYADSVKGRFTISRDNSKNTLFLQMNSLRAEDTAVYYCATNDDYWGQGTLVTVSS VL: EIVLTQSPATLSLSPGERATLSCRASQSVSSYLAWYQQKPGQAPRLLIYDASNRACGIPARFSGSGSGTDFTLTISSLEPEDFAVYYCQQSSNWPRTFGQGTKVEIKR

>  <Val>
90 to 110%

$$$$

Incoming: Would you mind telling me what binding activity (OD after mutation/OD wild type) value was observed for anti-PD-1 antibody 1 light chain G33C (antibody, human IgG4 S228P, kappa, V domains shown) VH: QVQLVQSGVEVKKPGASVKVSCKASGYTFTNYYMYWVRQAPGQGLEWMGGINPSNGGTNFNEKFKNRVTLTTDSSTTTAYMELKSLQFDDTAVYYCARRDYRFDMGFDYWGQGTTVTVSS VL: EIVLTQSPATLSLSPGERATLSCRASKGVSTSCYSYLHWYQQKPGQAPRLLIYLASYLESGVPARFSGSGSGTDFTLTISSLEPEDFAVYYCQHSRDLPLTFGGGTKVEIKR ?
Outgoing: 90 to 110%
